# measuredTarget: T1, full length recombinant human 2N4R tau (amino acids 1-441) (human, UniProt P10636 1-758)
# T1 construct: Bought (rPeptide); recombinant, non-phosphorylated; also called recombinant tau
# T1 sequence (P10636 other isoform, or with tags, fused parts or gaps limits assumed): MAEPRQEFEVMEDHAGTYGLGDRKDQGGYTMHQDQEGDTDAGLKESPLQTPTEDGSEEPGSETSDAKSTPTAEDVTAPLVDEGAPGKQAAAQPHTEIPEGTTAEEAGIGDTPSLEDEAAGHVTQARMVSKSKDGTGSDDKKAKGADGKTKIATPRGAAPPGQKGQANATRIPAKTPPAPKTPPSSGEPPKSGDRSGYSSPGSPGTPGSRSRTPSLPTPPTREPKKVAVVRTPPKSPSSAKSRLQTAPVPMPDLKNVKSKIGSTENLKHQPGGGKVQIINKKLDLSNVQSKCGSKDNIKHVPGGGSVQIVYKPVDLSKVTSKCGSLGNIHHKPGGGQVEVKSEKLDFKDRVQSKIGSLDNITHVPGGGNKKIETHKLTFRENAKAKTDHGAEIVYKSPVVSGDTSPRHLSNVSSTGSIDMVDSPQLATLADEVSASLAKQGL
# assayNotes: SPR Biacore SCK, IgG on Protein A, tau analyte
measureName: kon (M⁻¹ s⁻¹)
Report as a plain number; the unit M⁻¹ s⁻¹ is understood.

Recorded kon, per entry:
{"binder": "Clone 35 (VH6Vκ2), humanised variant of clone #28, human IgG1 (antibody, V domains shown, also called VH6VK2) VH: QVQLQESGPGLVKPSETLSLTCTVSGFSLNNYDMSWVRQAPGKGLEWIGTVSTTYRRYYADSVKGRFTISRDNSKNTLDLQMTSLTAEDTATYFCAASGIWGRGTLVTVSS VL: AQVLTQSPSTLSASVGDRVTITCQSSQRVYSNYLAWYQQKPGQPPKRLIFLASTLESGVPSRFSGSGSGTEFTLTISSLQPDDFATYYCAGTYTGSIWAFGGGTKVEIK", "unit": "M⁻¹ s⁻¹", "recordedValue": 24000}
{"binder": "Clone 28 (VH4Vκ4), humanised variant of clone #28, human IgG1 (antibody, V domains shown, also called VH4VK4; VH4Vk4) VH: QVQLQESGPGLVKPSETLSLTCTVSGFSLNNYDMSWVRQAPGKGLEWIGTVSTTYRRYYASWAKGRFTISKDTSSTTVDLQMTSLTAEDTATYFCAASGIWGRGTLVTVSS VL: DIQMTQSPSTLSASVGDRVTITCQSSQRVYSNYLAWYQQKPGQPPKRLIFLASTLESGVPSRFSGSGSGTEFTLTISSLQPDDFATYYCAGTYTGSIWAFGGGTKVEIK", "unit": "M⁻¹ s⁻¹", "recordedValue": 47700}

Switching to the query record.
kon reported for this binder Clone 30 (VH5Vκ1), humanised variant of clone #28, human IgG1 (antibody, V domains shown, also called VH5VK1) VH: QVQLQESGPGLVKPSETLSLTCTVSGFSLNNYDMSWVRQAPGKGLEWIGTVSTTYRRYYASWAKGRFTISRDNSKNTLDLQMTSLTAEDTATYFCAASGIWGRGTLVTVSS VL: AQVLTQSTSPLSASVGDRVTITCQSSQRVYSNYLAWYQQKPGQPPKRLIFLASTLESGVPSRFSGSGSGTEFTLTISSLQCDDFATYYCAGTYTGSIWAFGGGTEVVIK : 46300
